Target: Ubiquitin-activating enzyme e1, putative (Leishmania donovani (strain BPK282A1))
Sequence (whole entry): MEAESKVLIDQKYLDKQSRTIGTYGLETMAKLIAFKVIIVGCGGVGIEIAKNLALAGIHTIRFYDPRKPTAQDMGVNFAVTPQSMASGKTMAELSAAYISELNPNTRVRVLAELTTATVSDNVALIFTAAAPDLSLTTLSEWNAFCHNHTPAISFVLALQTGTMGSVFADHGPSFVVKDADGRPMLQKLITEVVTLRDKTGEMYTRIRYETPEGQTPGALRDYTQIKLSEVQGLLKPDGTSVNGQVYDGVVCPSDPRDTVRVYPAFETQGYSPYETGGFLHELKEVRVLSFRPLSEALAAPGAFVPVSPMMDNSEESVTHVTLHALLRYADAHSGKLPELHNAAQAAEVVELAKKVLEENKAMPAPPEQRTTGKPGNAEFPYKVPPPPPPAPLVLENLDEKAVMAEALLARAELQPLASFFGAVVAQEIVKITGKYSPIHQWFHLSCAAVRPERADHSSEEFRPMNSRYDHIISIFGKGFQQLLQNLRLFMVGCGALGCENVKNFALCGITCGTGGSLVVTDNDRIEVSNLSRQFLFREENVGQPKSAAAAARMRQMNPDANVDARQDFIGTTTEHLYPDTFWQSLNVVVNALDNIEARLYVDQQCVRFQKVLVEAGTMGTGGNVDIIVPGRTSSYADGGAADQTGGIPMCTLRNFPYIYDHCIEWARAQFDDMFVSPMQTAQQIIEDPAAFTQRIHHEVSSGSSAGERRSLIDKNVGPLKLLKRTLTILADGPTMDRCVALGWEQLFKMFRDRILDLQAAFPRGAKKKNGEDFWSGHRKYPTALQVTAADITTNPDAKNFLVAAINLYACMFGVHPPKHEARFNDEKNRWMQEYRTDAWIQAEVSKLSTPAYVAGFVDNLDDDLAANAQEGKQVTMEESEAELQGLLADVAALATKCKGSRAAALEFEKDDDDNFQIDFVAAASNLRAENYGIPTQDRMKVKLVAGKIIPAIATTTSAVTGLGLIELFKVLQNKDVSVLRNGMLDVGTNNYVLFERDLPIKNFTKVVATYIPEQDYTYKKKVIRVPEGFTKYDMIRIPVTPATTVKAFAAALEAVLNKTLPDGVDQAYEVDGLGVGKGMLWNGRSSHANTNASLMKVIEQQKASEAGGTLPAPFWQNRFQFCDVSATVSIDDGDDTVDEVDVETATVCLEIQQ
Experiment: Leishmania donovani Ubiquitin Activating Enzyme (LdE1)
Type: functional
Parameters: scale not given: direction of the effect not stated beside the values
Conditions: 30 µM
Potency and affinity values are given separately.
Kindly state Percent Effect for each of the entries shown.
Supply the numeric figure in %, leaving out any unit text.

## Input State, for Ubiquitin-activating enzyme e1, putative (Leishmania donovani (strain BPK282A1)), measured Percent Effect of the compound listed here: CCOCCN1CCN(Cc2nnc(C3CC3)o2)CC1CC (stereo not drawn)
## Output 11

## Input Return reported Percent Effect for target or system Ubiquitin-activating enzyme e1, putative (Leishmania donovani (strain BPK282A1)), item `Cc1nc(CN2C(=O)C[C@@H]3[C@@H]2CCN3C(=O)C2CCOCC2)cs1` .
## Output 8.22

## Input Output reported Percent Effect of the compound Cc1nn(C)c(C)c1C1CCCN1C(=O)CCCn1cccn1 (stereo not drawn) on Ubiquitin-activating enzyme e1, putative (Leishmania donovani (strain BPK282A1)).
## Output 0

## Input State the measured Percent Effect (Ubiquitin-activating enzyme e1, putative (Leishmania donovani (strain BPK282A1))) of `Cc1ccc(C(=O)N(C)Cc2cscn2)c(=O)[nH]1`
## Output 15.8

## Input Recall the reported Percent Effect of `CC[C@@]1(O)CCN(C(=O)c2ccsc2)C[C@H]1O` when tested on Ubiquitin-activating enzyme e1, putative (Leishmania donovani (strain BPK282A1)).
## Output 4.17

## Input Provide the reported Percent Effect (system: Ubiquitin-activating enzyme e1, putative (Leishmania donovani (strain BPK282A1))) for O=C(NCc1cccc(F)c1)N1CCC2(CC(=O)N(c3ccsc3)C2)C1 (stereo not drawn)
## Output 8.11

## Input Tell me its Percent Effect on Ubiquitin-activating enzyme e1, putative (Leishmania donovani (strain BPK282A1)): `O=C(CSc1ccncc1)N1C[C@H]2CC[C@@H]1CN(Cc1cccnc1)C2`
## Output 16.4

## Input Look up and report measured Percent Effect (Ubiquitin-activating enzyme e1, putative (Leishmania donovani (strain BPK282A1))) for the following compound: `CC(=O)NCCNC(=O)c1cnc(-c2ccccc2)nc1`
## Output 2.7

## Input Please respond with reported Percent Effect (system Ubiquitin-activating enzyme e1, putative (Leishmania donovani (strain BPK282A1))) for Cc1noc(Cl)c1CCC(=O)N1CCCCC1Cn1cccn1 (stereo not drawn) .
## Output 5.26

## Input Send back Ubiquitin-activating enzyme e1, putative (Leishmania donovani (strain BPK282A1)) Percent Effect of `N#Cc1cccc(CN2CC[C@@H]3[C@@H]2CC(=O)N3Cc2cccnc2)c1` only.
## Output 16

## Input Lab note: record Percent Effect of `Cc1ccc(N2CC3(CCN(c4nccs4)C3)C2)nn1` tested on Ubiquitin-activating enzyme e1, putative (Leishmania donovani (strain BPK282A1)).
## Output 2.74

## Input Jot down Percent Effect (Ubiquitin-activating enzyme e1, putative (Leishmania donovani (strain BPK282A1))) of CCOCC(O)CN1CCN(C(=O)c2ccnc(N(C)C)c2)CC1 (stereo not drawn) .
## Output 2.7

## Input # assay system Ubiquitin-activating enzyme e1, putative (Leishmania donovani (strain BPK282A1)): give Percent Effect of O=C(CN1CCCCC1Cn1cncn1)NCCc1ccc(F)cc1 (stereo not drawn)
## Output 15.2

## Input Enter measured Percent Effect, system Ubiquitin-activating enzyme e1, putative (Leishmania donovani (strain BPK282A1)), for the compound shown: CC1c2ncc(COc3cccnc3)n2CCN1C(=O)Cc1ccco1 (stereo not drawn)
## Output 6.67

## Input Recall the reported Percent Effect of `Cc1ccc(C)c(NC(=O)c2n[nH]c(-n3cnnc3)n2)c1` when tested on Ubiquitin-activating enzyme e1, putative (Leishmania donovani (strain BPK282A1)).
## Output 6.67

## Input Given `CS(=O)(=O)N1CC[C@]2(C[C@@H](OCC3CCC3)CO2)C1` , report its Percent Effect on Ubiquitin-activating enzyme e1, putative (Leishmania donovani (strain BPK282A1)).
## Output 16.2

## Input Provide Percent Effect, recorded with Ubiquitin-activating enzyme e1, putative (Leishmania donovani (strain BPK282A1)), of `O=C(NCc1ccccn1)[C@@H]1CCO[C@@H]2CCN(Cc3ccoc3)C[C@H]21`
## Output 8.11

## Input Answer with Percent Effect of `Cc1nonc1CC(=O)N1C[C@@H]2CC[C@H](C1)N(Cc1ccccc1)C2=O` measured for Ubiquitin-activating enzyme e1, putative (Leishmania donovani (strain BPK282A1)).
## Output -2.7

## Input Fill: Percent Effect (Ubiquitin-activating enzyme e1, putative (Leishmania donovani (strain BPK282A1))) for this compound `CN(C)CCn1c(=O)oc2ccc(NC(=O)c3cc(Cl)c[nH]3)cc21`
## Output 2.67

## Input Supply Percent Effect measured with Ubiquitin-activating enzyme e1, putative (Leishmania donovani (strain BPK282A1)) for `CN(Cc1nccn1CC(F)(F)F)C(=O)c1ccc(F)c(F)c1` .
## Output 5.26

## Input State recorded Percent Effect with Ubiquitin-activating enzyme e1, putative (Leishmania donovani (strain BPK282A1)), entry `CCC1=N[C@@]2(CC[C@@H]3CN(C(=O)Nc4ccc(F)cc4)C[C@@H]32)C(=O)N1` , no comment.
## Output 5.41

## Input Report Percent Effect from Ubiquitin-activating enzyme e1, putative (Leishmania donovani (strain BPK282A1)) testing of `O=C(C1=CC2(CCNCC2)c2ccccc21)N1CCCC1`
## Output 2.67

## Input // fetch Percent Effect; item: COc1ccccc1OCc1cc(C(=O)N2CC=CC2C(C)C)n[nH]1 (stereo not drawn) ; system: Ubiquitin-activating enzyme e1, putative (Leishmania donovani (strain BPK282A1))
## Output 1.39
